Tested on: C57BL/6J mice (mild hyperglycemic)
Test: In vivo glucose reduction, acute single dose 120-min time-course, i.p. route
Parameters: species or system mouse; unit not given here
Conditions: male C57BL/6J mice, 10 nM/kg i.p., 0 min
Starred links: 1 amine or outer side, 2 acyl side, 3 side chain; linkers in the order of their positions; H or OH if unused. Non-standard residues stand in square brackets, D forms with d. Residues, ends and D or L forms follow the SMILES beside them. ξ: configuration not given here. *: point of attachment. ξBip(2'-Et-4'-OMe) = CCc1cc(OC)ccc1-c1ccc(CC(N)C(=O)O)cc1; X12 = COc1ccc(CCCC(N[*:1])C(=O)[*:2])c(Cl)c1; ξαMePhe(2-F) = CC(N)(Cc1ccccc1F)C(=O)O; X2 = O=C(C(CCCc1ccccc1Cl)N[*:1])[*:2]; ξhhPhe = NC(CCCc1ccccc1)C(=O)O; Aib = CC(C)(N)C(=O)O; Moc = COC(=O)*

COMPOUND: CCc1cc(OC)ccc1-c1ccc(CC(CNC(CCCc2ccccc2F)C(N)=O)NC[C@H](CC(=O)O)NC(=O)[C@H](CO)NC(=O)[C@@H](NC(=O)C(C)(Cc2ccccc2F)NC(=O)[C@@H](NC(=O)CNC(=O)[C@H](CCC(N)=O)NC(=O)C(C)(C)NC(=O)[C@H](Cc2c[nH]cn2)NC(C)=O)[C@@H](C)O)[C@@H](C)O)cc1 (single isomer, unassigned)
blood glucose levels: 182
--
COMPOUND: CCc1cc(OC)ccc1-c1ccc(CC(CNC(CCCc2ccccc2)C(N)=O)NC[C@H](CC(=O)O)NC(=O)[C@H](CO)NC(=O)[C@@H](NC(=O)C(C)(Cc2ccccc2F)NC(=O)[C@@H](NC(=O)CNC(=O)[C@H](CCC(N)=O)NC(=O)C(C)(C)NC(=O)[C@H](Cc2c[nH]cn2)NC(=O)OC)[C@@H](C)O)[C@@H](C)O)cc1 (single isomer, unassigned)
blood glucose levels: 183
--
COMPOUND: CCc1cc(OC)ccc1-c1ccc(CC(NC(=O)[C@H](CC(=O)O)NC(=O)[C@H](CO)NC(=O)[C@@H](NC(=O)C(C)(Cc2ccccc2F)NC(=O)[C@@H](NC(=O)CNC(=O)[C@H](CCC(N)=O)NC(=O)C(C)(C)NC(=O)[C@H](Cc2c[nH]cn2)NC(=O)OC)[C@@H](C)O)[C@@H](C)O)C(=O)NC(CCCc2ccccc2)C(N)=O)cc1 (stereo partly shown) [Seq. ID. 94] (Moc-H[Aib]QGT[ξαMePhe(2-F)]TSD[ξBip(2'-Et-4'-OMe)][ξhhPhe]-NH2)
blood glucose levels: 182
--
COMPOUND: CCc1cc(OC)ccc1-c1ccc(CC(NC(=O)[C@H](CC(=O)O)NC(=O)[C@H](CO)NC(=O)[C@@H](NC(=O)[C@H](Cc2ccccc2)NC(=O)[C@@H](NC(=O)CNC(=O)C(CCC#N)NC(=O)C(C)(C)NC(=O)[C@@H](N)Cc2c[nH]cn2)[C@@H](C)O)[C@@H](C)O)C(=O)NC(CCCc2ccc(OC)cc2Cl)C(N)=O)cc1 (single isomer, unassigned)
blood glucose levels: 182
--
COMPOUND: CCc1cc(OC)ccc1-c1ccc(CC(NC(=O)[C@H](CC(=O)O)NC(=O)[C@H](CO)NC(=O)[C@@H](NC(=O)C(C)(Cc2ccccc2F)NC(=O)[C@@H](NC(=O)CNC(=O)[C@H](CCC(N)=O)NC(=O)C(C)(C)NC(=O)[C@@H](N)Cc2c[nH]cn2)[C@@H](C)O)[C@@H](C)O)C(=O)NC(CCCc2ccccc2Cl)C(N)=O)cc1 (stereo partly shown) [Seq. ID. 90] (H-H[Aib]QGT[ξαMePhe(2-F)]TSD[ξBip(2'-Et-4'-OMe)][X2]-NH2)
blood glucose levels: 181
--
COMPOUND: CCc1cc(OC)ccc1-c1ccc(CC(NC(=O)[C@H](CC(=O)O)NC(=O)[C@H](CO)NC(=O)[C@@H](NC(=O)C(C)(Cc2ccccc2F)NC(=O)[C@@H](NC(=O)CNC(=O)[C@H](CCC(N)=O)NC(=O)C(C)(C)NC(=O)[C@@H](N)Cc2c[nH]cn2)[C@@H](C)O)[C@@H](C)O)C(=O)NC(CCCc2ccc(OC)cc2Cl)C(N)=O)cc1 (stereo partly shown) [Seq. ID. 92] (H-H[Aib]QGT[ξαMePhe(2-F)]TSD[ξBip(2'-Et-4'-OMe)][X12]-NH2)
blood glucose levels: 180
--
COMPOUND: CCc1cc(OC)ccc1-c1ccc(CC(CNC(CCCc2ccccc2F)C(N)=O)NC(=O)[C@H](CC(=O)O)NC(=O)[C@H](CO)NC(=O)[C@@H](NC(=O)C(C)(Cc2ccccc2F)NC(=O)[C@@H](NC(=O)CNC(=O)C(CCC#N)NC(=O)C(C)(C)NC(=O)[C@@H](N)Cc2c[nH]cn2)[C@H](C)O)[C@H](C)O)cc1 (single isomer, unassigned)
blood glucose levels: 180

----------
Form field: Insulin secretion (one value per entry).
Tested on: RIN5F (Rat Insulinoma) cells
Test: In vitro glucose-dependent insulin secretion (RIN5F cell assay screening protocol)
Type: cell-based
Settings: 10 nM test compd., 16.7 mM glucose load
Starred links: 1 amine or outer side, 2 acyl side, 3 side chain; linkers in the order of their positions; H or OH if unused. Non-standard residues stand in square brackets, D forms with d. Residues, ends and D or L forms follow the SMILES beside them. ξ: configuration not given here. *: point of attachment. X9 = CCc1cc(OC)ccc1-c1ccc(CC(NC(=S)[C@H](CC(=O)O)N*)C(=S)NC(CCCc2ccccc2F)C(N)=O)cc1; X5 = CCc1cc(OC)ccc1-c1ccc(CC(N*)C(=S)NC(CCCc2ccccc2F)C(N)=O)cc1; Leu(5,5,5,5',5',5'-F6) = N[C@@H](CC(C(F)(F)F)C(F)(F)F)C(=O)O; ξBip(2'-Et-4'-OMe) = CCc1cc(OC)ccc1-c1ccc(CC(N)C(=O)O)cc1; X1 = O=C(C(CCCc1ccc(C(F)(F)F)cc1F)N[*:1])[*:2]; ξαMePhe(2-F) = CC(N)(Cc1ccccc1F)C(=O)O; aThr = C[C@H](O)[C@H](N)C(=O)O; Aib = CC(C)(N)C(=O)O

COMPOUND: CCc1cc(OC)ccc1-c1ccc(CC(NC(=O)[C@H](CC(=O)O)NC(=O)[C@H](CO)NC(=O)[C@@H](NC(=O)C(C)(Cc2ccccc2F)NC(=O)[C@@H](NC(=O)CNC(=O)[C@H](CC(C(F)(F)F)C(F)(F)F)NC(=O)C(C)(C)NC(=O)[C@@H](N)Cc2c[nH]cn2)[C@H](C)O)[C@H](C)O)C(=S)NC(CCCc2ccccc2F)C(N)=O)cc1 (stereo partly shown) [compound 218] (H-H[Aib][Leu(5,5,5,5',5',5'-F6)]G[aThr][ξαMePhe(2-F)][aThr]SD-X5)
Insulin secretion (pg/µg/h): 28.1
//
COMPOUND: CCc1cc(OC)ccc1-c1ccc(CC(NC(=O)[C@H](CC(=O)O)NC(=O)[C@H](CO)NC(=O)[C@@H](NC(=O)[C@H](Cc2ccccc2)NC(=O)[C@@H](NC(=O)CNC(=O)C(CCC#N)NC(=O)C(C)(C)NC(=O)[C@@H](N)Cc2c[nH]cn2)[C@@H](C)O)[C@@H](C)O)C(=O)NC(CCCc2ccc(Cl)cc2C)C(N)=O)cc1 (single isomer, unassigned) [compound 32]
Insulin secretion (pg/µg/h): 28.0
//
COMPOUND: CCc1cc(OC)ccc1-c1ccc(CC(NC(=O)[C@H](CC(=O)O)NC(=O)[C@H](CO)NC(=O)[C@@H](NC(=O)[C@H](Cc2ccccc2)NC(=O)[C@@H](NC(=O)CNC(=O)C(CCC#N)NC(=O)C(C)(C)NC(=O)[C@@H](N)Cc2c[nH]cn2)[C@@H](C)O)[C@@H](C)O)C(=O)NC(CCCc2cc(C)cc(C)c2)C(N)=O)cc1 (single isomer, unassigned) [compound 30]
Insulin secretion (pg/µg/h): 37.0
//
COMPOUND: CCc1cc(OC)ccc1-c1ccc(CC(NC(=O)[C@H](CC(=O)O)NC(=O)[C@H](CO)NC(=O)[C@@H](NC(=O)C(C)(Cc2ccccc2F)NC(=O)[C@@H](NC(=O)CNC(=O)C(CCC#N)NC(=O)C(C)(C)NC(=O)[C@@H](N)Cc2c[nH]cn2)[C@H](C)O)[C@@H](C)O)C(=O)NC(CCCc2ccccc2)C(N)=O)cc1 (single isomer, unassigned) [compound 110]
Insulin secretion (pg/µg/h): 27.8
//
COMPOUND: CCc1cc(OC)ccc1-c1ccc(CC(NC(=O)[C@H](CC(=O)O)NC(=O)[C@H](CO)NC(=O)[C@@H](NC(=O)[C@H](Cc2ccccc2)NC(=O)[C@@H](NC(=O)CNC(=O)C(CCC#N)NC(=O)C(C)(C)NC(=O)[C@@H](N)Cc2c[nH]cn2)[C@@H](C)O)[C@@H](C)O)C(=O)NC(CCCc2ccc(C(F)(F)F)cc2F)C(N)=O)cc1 (single isomer, unassigned) [compound 81]
Insulin secretion (pg/µg/h): 37.0
//
COMPOUND: CCc1cc(OC)ccc1-c1ccc(CC(NC(=O)[C@H](CC(=O)O)NC(=O)[C@H](CO)NC(=O)[C@@H](NC(=O)C(C)(Cc2ccccc2F)NC(=O)[C@@H](NC(=O)CNC(=O)[C@H](CCC(N)=O)NC(=O)C(C)(C)NC(=O)[C@H](Cc2c[nH]cn2)NC(C)=O)[C@H](C)O)[C@H](C)O)C(=O)NC(CCCc2ccccc2)C(N)=O)cc1 (single isomer, unassigned) [compound 101]
Insulin secretion (pg/µg/h): 29.6
//
COMPOUND: CCc1cc(OC)ccc1-c1ccc(CC(NC(=O)[C@H](CC(=O)O)NC(=O)[C@H](CO)NC(=O)[C@@H](NC(=O)[C@H](Cc2ccccc2)NC(=O)[C@@H](NC(=O)CNC(=O)[C@H](CCC(N)=O)NC(=O)[C@H](CO)NC(=O)[C@@H](N)Cc2c[nH]cn2)[C@@H](C)O)[C@@H](C)O)C(=O)NC(CCCc2ccc(C(F)(F)F)cc2F)C(N)=O)cc1 (stereo partly shown) [compound 49] (H-HSQGTFTSD[ξBip(2'-Et-4'-OMe)][X1]-NH2)
Insulin secretion (pg/µg/h): 36.0
//
COMPOUND: CCc1cc(OC)ccc1-c1ccc(CC(NC(=O)[C@H](CC(=O)O)NC(=O)[C@H](CO)NC(=O)[C@@H](NC(=O)[C@H](Cc2ccccc2)NC(=O)[C@@H](NC(=O)CNC(=O)[C@H](CCC(N)=O)NC(=O)[C@H](CO)NC(=O)[C@@H](N)Cc2c[nH]cn2)[C@@H](C)O)[C@@H](C)O)C(=O)NC(CCCc2ccccc2F)C(N)=O)cc1 (single isomer, unassigned) [compound 45]
Insulin secretion (pg/µg/h): 27.9
//
COMPOUND: CCc1cc(OC)ccc1-c1ccc(CC(NC(=S)[C@H](CC(=O)O)NC(=O)[C@H](CO)NC(=O)[C@@H](NC(=O)C(C)(Cc2ccccc2F)NC(=O)[C@@H](NC(=O)CNC(=O)[C@H](CCC(N)=O)NC(=O)C(C)(C)NC(=O)[C@H](Cc2c[nH]cn2)NC(C)=O)[C@H](C)O)[C@H](C)O)C(=S)NC(CCCc2ccccc2F)C(N)=O)cc1 (stereo partly shown) [compound 175] (Ac-H[Aib]QG[aThr][ξαMePhe(2-F)][aThr]S-X9)
Insulin secretion (pg/µg/h): 35.6
//
COMPOUND: CCc1cc(OC)ccc1-c1ccc(CC(C(=O)N(C)C(CCCc2ccccc2)C(N)=O)N(C)C(=O)[C@H](CC(=O)O)NC(=O)[C@H](CO)NC(=O)[C@@H](NC(=O)C(C)(Cc2ccccc2F)NC(=O)[C@@H](NC(=O)CNC(=O)C(CCC#N)NC(=O)C(C)(C)NC(=O)[C@@H](N)Cc2c[nH]cn2)[C@H](C)O)[C@H](C)O)cc1 (single isomer, unassigned) [compound 142]
Insulin secretion (pg/µg/h): 29.9
